- procedureText: Vero E6 cell cytotoxicity, dose response, cytotoxicity control for PfM18AAP inhibitor project, set 3 (AID 624205)
- recordedConditions: Vero E6 viability, CellTiter-Glo luminescence, 72 h; at 50 µM (top of the series)
Inconclusive results are not listed.
Recorded viability by entry
Answer with a number only, understood to be in %.

Consider the following illustrative entries.
molecule: CC(Cc1ccc(O)c(O)c1)Nc1ccnc2ccccc12 (stereo not given)
readout: viability
unitsOfMeasure: %
recordedMeasurement: 83.9
//
molecule: CN(CCc1ccc(O)c(O)c1)c1ncnc2ccccc12
readout: viability
unitsOfMeasure: %
recordedMeasurement: 95.4
//
molecule: Cc1cc(N(C)CCc2ccc(O)c(O)c2)c2ccccc2n1
readout: viability
unitsOfMeasure: %
recordedMeasurement: 89.8
//
molecule: Oc1cccc(CCNc2ccnc3ccccc23)c1O
readout: viability
unitsOfMeasure: %
recordedMeasurement: 93.2

Here's the next entry for you.
Provide measured viability value, entry: Oc1ccc(CCCNc2c3c(nc4ccccc24)CCCC3)cc1O 92.3
